- Target system: abc isoform of human TMEM16A channel expressed in CHO cells (Homo sapiens, UniProt Q5XXA6, DEL476-501)
- Protocol summary: Automated patch clamping (QPatch) assay to measure TMEM16A activity in whole-cell
- Protocol conditions: CHO cells expressing human TMEM16A (abc), whole-cell automated patch clamp, Hill fit; read-out: TMEM16A QPATCH assay EC50 V3 EC50
Counter-ions that a name gives are not always drawn.
Measurement name: EC50 (nM)

compound=CCC(CC)NC(=O)c1cc(-c2cccc(-c3ncc(C(=O)N[C@H](C)C4CCCCC4)o3)c2)[nH]n1 test_value=750
compound=CCC(CC)NC(=O)c1cnc(-c2cccc(-c3cc(C(=O)NC(C)(C)CCc4ccccc4)n[nH]3)c2)o1 test_value=150
compound=CCC(CC)NC(=O)c1cnc(-c2cccc(-c3cc(C(=O)N4CCCC(C)(C)C4)n[nH]3)c2)o1 test_value=200
compound="CCOC(=O)[C@H](CC(C)C)NC(=O)c1cc(-c2cccc(-c3ncc(C(=O)NC(CC)CC)o3)c2)[nH]n1 [Example 3.60, Trifluoroacetate]" test_value=160
compound="CCC(CC)NC(=O)c1cnc(-c2cccc(-c3cc(C(=O)N[C@@H](C#N)CC)n[nH]3)c2)o1 (single isomer, unassigned)" test_value=240
compound=C[C@H](NC(=O)c1cnc(-c2cccc(-c3cc(C(=O)N[C@@H](C)C4CC4)n(CC(C)(C)O)n3)c2)o1)C1CC1 test_value=250
compound=CCC(CC)NC(=O)c1cc(-c2cccc(-c3ncc(C(=O)NCc4ccc(F)cc4)o3)c2)[nH]n1 test_value=580
compound="CCOC(=O)C(C)(C)NC(=O)c1cnc(-c2cccc(-c3cc(C(=O)NC(CC)CC)n[nH]3)c2)o1 [Example 1.51, Trifluoroacetate]" test_value=980
compound=CCC(CC)NC(=O)c1cc(-c2cccc(-c3ncc(C(=O)N[C@@H](C(=O)OC)c4ccccc4)o3)c2)[nH]n1 test_value=880
compound="CCC(CC)NC(=O)c1cnc(-c2cccc(-c3cc(C(=O)NC(C4CC4)C4CCCO4)n[nH]3)c2)o1 (single isomer, unassigned) [Example 3.4 (i)]" test_value=710
compound=CCOC(=O)[C@@H](NC(=O)c1cnc(-c2cccc(-c3cc(C(=O)NC(CC)CC)n[nH]3)c2)o1)c1ccccc1 test_value=1100
compound=CCC(CC)NC(=O)c1cnc(-c2cccc(-c3nnc(C(=O)N[C@@H](C)C4CC4)[nH]3)c2)o1 test_value=580
compound=CCC(CC)NC(=O)c1cnc(-c2cccc(-c3cc(C(=O)N[C@@H](CC(C)C)C(=O)OC)n[nH]3)c2)o1 test_value=10

----------
- Target system: abc isoform of human TMEM16A channel expressed in CHO cells (Homo sapiens, UniProt Q5XXA6, DEL476-501)
- Construct: expressed in transfected cells; host or cells: CHO cells, doxycycline-inducible expression under Blasticidin/Zeocin selection
- Sequence (Q5XXA6 with tags, fused parts or gaps isoform Q5XXA6-5 DEL539-564): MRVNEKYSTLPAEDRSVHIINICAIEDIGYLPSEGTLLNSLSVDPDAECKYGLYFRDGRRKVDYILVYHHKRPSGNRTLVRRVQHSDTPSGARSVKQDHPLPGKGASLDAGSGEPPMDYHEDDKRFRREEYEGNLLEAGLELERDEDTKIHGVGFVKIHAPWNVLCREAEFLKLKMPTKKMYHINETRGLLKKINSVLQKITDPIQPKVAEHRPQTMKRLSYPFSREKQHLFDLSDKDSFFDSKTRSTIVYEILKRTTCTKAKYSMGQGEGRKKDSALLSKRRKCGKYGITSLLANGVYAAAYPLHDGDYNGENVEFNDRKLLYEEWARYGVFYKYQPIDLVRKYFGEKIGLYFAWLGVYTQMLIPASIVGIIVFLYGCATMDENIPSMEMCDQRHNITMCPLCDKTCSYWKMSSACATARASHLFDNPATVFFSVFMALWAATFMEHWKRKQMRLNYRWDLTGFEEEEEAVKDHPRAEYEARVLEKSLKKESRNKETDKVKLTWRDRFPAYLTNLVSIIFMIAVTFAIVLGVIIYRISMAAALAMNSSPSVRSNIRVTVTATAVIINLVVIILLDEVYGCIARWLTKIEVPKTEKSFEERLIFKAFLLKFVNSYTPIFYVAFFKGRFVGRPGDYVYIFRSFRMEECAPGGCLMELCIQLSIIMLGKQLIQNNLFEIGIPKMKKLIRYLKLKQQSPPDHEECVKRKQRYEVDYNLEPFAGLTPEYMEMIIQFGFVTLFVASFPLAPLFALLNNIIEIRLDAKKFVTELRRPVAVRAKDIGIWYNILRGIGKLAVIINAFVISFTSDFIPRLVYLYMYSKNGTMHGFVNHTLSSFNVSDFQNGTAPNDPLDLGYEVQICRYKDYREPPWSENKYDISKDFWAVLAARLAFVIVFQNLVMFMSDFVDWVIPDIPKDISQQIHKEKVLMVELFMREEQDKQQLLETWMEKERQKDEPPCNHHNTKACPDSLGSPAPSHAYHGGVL
- Protocol summary: Automated patch clamping (QPatch) assay to measure TMEM16A activity in whole-cell
- Assay type: cell-based
- Protocol conditions: CHO, maximum current at highest dose relative to reference potentiator at maximal concentration (upper limit) and vehicle (lower limit); read-out: TMEM16A QPATCH assay EC50 V3 Assay Window (% TMEM16A max activation)
Structures can show the parent of a compound that is named as a salt.
Assign Yes whenever Emax does not fall below 90%; assign No whenever it does.

compound="CCOC(=O)[C@@H](NC(=O)c1cnc(-c2cccc(-c3cc(C(=O)N[C@@H](CC(C)C)C(=O)OC)n[nH]3)c2)o1)C(C)C [Example 2.1]" answer_label=No
compound="C[C@H](NC(=O)c1nnc(-c2cccc(-c3ncc(C(=O)N[C@H](C)C4CC4)o3)c2)[nH]1)C1CC1 [Example 12.1]" answer_label=No
compound="CCOC(=O)[C@@H](NC(=O)c1cnc(-c2cccc(-c3cc(C(=O)NC(C4CC4)C4CC4)n(CCO)n3)c2)o1)C(C)C [Example 4.4]" answer_label=Yes
compound="CCC(CC)NC(=O)c1cnc(-c2cccc(-c3cc(C(=O)N4CCCCC4)n[nH]3)c2)o1 [Example 3.33]" answer_label=No
compound="CCC(CC)NC(=O)c1cc(-c2cccc(-c3ncc(C(=O)NC4CCCC4)o3)c2)[nH]n1 [Example 1.2]" answer_label=No
compound="CCOC(=O)[C@@H](NC(=O)c1cc(-c2cccc(-c3ncc(C(=O)NC(CC)CC)o3)c2)nn1CCN1CCOCC1)C(C)C [Example 7.0]" answer_label=Yes
compound="CCC(CC)NC(=O)c1cc(-c2cccc(-c3ncc(C(=O)N[C@@H](CC(C)C)C(=O)NCC(=O)OC(C)(C)C)o3)c2)[nH]n1 [Example 1.16]" answer_label=Yes
compound="CCOC(=O)[C@@H](NC(=O)c1cnc(-c2cccc(-c3nnc(C(=O)N[C@@H](C)C4CC4)[nH]3)c2)o1)C(C)C [Example 12.2]" answer_label=Yes
compound="CCC(CC)NC(=O)c1cnc(-c2cccc(-c3nc(C(=O)NC(CC)CC)n(CCOCCOCCOC)n3)c2)o1 [Example 15.9]" answer_label=Yes
compound="CCOC(=O)C(C)(C)NC(=O)c1cnc(-c2cccc(-c3cc(C(=O)NC(CC)CC)n[nH]3)c2)o1 [Example 1.51, Trifluoroacetate]" answer_label=No
compound="CCC(CC)NC(=O)c1cnc(-c2cccc(-c3cc(C(=O)NCC(C)(C)OC)n[nH]3)c2)o1 [Example 3.12]" answer_label=No
compound="CCC(CC)NC(=O)c1cc(-c2cccc(-c3ncc(C(=O)N[C@@H](C(=O)OC)c4ccccc4)o3)c2)[nH]n1 [Example 1.39]" answer_label=No
